molecular target: μ opioid receptor (Cavia porcellus, UniProt A0ACM8Q262); conditions: GPI, morphine, antagonist 100 nM
Sequence (A0ACM8Q262 1-400): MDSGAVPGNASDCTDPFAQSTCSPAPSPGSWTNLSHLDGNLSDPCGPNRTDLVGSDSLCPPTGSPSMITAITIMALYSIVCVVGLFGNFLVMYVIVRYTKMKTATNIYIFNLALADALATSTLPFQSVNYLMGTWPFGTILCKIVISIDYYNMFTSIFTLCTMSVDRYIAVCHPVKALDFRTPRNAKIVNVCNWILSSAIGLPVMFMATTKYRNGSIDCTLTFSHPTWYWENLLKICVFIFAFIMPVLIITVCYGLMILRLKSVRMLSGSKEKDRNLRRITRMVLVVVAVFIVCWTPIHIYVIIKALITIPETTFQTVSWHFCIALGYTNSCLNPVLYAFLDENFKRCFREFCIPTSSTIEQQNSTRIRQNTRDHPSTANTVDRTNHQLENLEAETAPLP
Where a name gives a salt, the structure may show the parent alone.
readout: IC50 ratio M(μ)
# output: bare number, no unit

Query: For O=C(O)c1cccc2c3c([nH]c12)[C@@H]1Oc2c(O)ccc4c2[C@@]12CCN(CC1CC1)[C@H](C4)[C@]2(O)C3 [Compound 7, hydrochloride] , what is its reported IC50 ratio M(μ)?
Reply: 2.0

Query: # get_value(readout='IC50 ratio M(μ)', item= N=C(N)NCCC[C@H](NC(=O)c1cccc2c3c([nH]c12)[C@@H]1Oc2c(O)ccc4c2[C@@]12CCN(CC1CC1)[C@H](C4)[C@]2(O)C3)C(=O)O [Compound 5, hydrochloride] )
Reply: 1.3

Query: Quick one: IC50 ratio M(μ) of O=C(O)CNC(=O)c1cccc2c3c([nH]c12)[C@@H]1Oc2c(O)ccc4c2[C@@]12CCN(CC1CC1)[C@H](C4)[C@]2(O)C3 [Compound 2, hydrochloride] ?
Reply: 1.5

Query: Reported IC50 ratio M(μ), compound O=C(O)C[C@H](NC(=O)c1cccc2c3c([nH]c12)[C@@H]1Oc2c(O)ccc4c2[C@@]12CCN(CC1CC1)[C@H](C4)[C@]2(O)C3)C(=O)O [Compound 3, hydrochloride] : ____
Reply: 1.3

Query: Would you kindly share the measured IC50 ratio M(μ) for NCCCC[C@H](NC(=O)c1cccc2c3c([nH]c12)[C@@H]1Oc2c(O)ccc4c2[C@@]12CCN(CC1CC1)[C@H](C4)[C@]2(O)C3)C(=O)O [Compound 6, hydrochloride] ?
Reply: 1.0

Query: If you can, please state the reported IC50 ratio M(μ) value of NCCC[C@H](NC(=O)c1cccc2c3c([nH]c12)[C@@H]1Oc2c(O)ccc4c2[C@@]12CCN(CC1CC1)[C@H](C4)[C@]2(O)C3)C(=O)O [Compound 4, hydrochloride] .
Reply: 3.0
